These entries and their values trace back to the METLIN SMRT retention time set (Domingo-Almenara et al. 2019).

assay-explanation: gradient 5% acetonitrile 3 min, to 50% in 2 min, to 85% in 15 min, held 3 min, 100 µL/min
applied-conditions: column: Zorbax Extend-C18 2.1 x 50 mm; eluents: water / acetonitrile, 0.1% formic acid
Assign labels as follows, please: Yes for RP-LC retention time below 800 s; No for RP-LC retention time equal to or exceeding 800 s.

>>> assigned_label("COc1ccc(C2Cn3nnc(-c4nc(-c5cccc(C(F)(F)F)c5)no4)c3CO2)cc1 (stereo not drawn)")
"No"
>>> assigned_label("COc1ccccc1OCCNc1nc2ccncc2n(C(C)C)c1=O")
"Yes"
>>> assigned_label("O=C(NCCN1CCN(S(=O)(=O)c2ccc(C(F)(F)F)cc2)CC1)c1ccsc1")
"Yes"
>>> assigned_label("Cc1cc(C)n(CC(=O)N2CCCn3ccnc3C2c2cnn(C)c2)n1 (stereo not drawn)")
"Yes"
>>> assigned_label("CCn1ccc(C(=O)Nc2cccc(OCc3nnc(-c4ccc(Cl)cc4)o3)c2)n1")
"No"
>>> assigned_label("Cc1cccc2nc(-c3cccc(Cl)c3)c(Nc3ccc4c(c3)OCCO4)n12")
"Yes"
>>> assigned_label("CCN(C(=O)c1ccco1)c1nc(-c2ccc(C)cc2)cs1")
"No"
>>> assigned_label("COc1cc(-c2nc3sc4c(c3c(=O)o2)CCC4)cc(OC)c1OC")
"No"
>>> assigned_label("CCOc1ccc(-c2nc(-c3ccc4oc(CC)nc4c3)no2)cc1")
"No"
>>> assigned_label("CCOc1ccc(NC(=O)c2oc3ccc(C)cc3c2C)c2cccnc12")
"Yes"
>>> assigned_label("CC(C)CC(=O)N1CCC2(CC1)C(=O)N(C)c1ccccc12")
"Yes"
>>> assigned_label("Cc1ccc(N2CC(NC(=O)NCc3cccs3)CC2=O)cc1C (stereo not drawn)")
"Yes"
>>> assigned_label("CNC(=O)C1CCCN(c2nc3ncn(CC(=O)Nc4ccc(C(=O)OC)cc4)c(=O)c3s2)C1 (stereo not drawn)")
"Yes"
>>> assigned_label("COc1ccc(N2CC(c3nc(-c4cccc(-c5ccnn5C)c4)no3)CC2=O)cc1 (stereo not drawn)")
"No"
>>> assigned_label("Cc1cc(C)cc(C(=O)N2CCC3(CC2)NC(=O)c2cc(C)ccc2N3C)c1")
"No"
>>> assigned_label("O=C(NCc1cccc(C(F)(F)F)c1)c1c[nH]c2ncccc12")
"Yes"
>>> assigned_label("Cc1ccc(-c2nsc3c(=O)n(C)c(SCC(=O)N4CCOc5ccc(C)cc54)nc23)cc1")
"No"
>>> assigned_label("COCCc1noc(-c2cnc3nc(C)ccc3c2NCc2ccccc2C)n1")
"Yes"
>>> assigned_label("Cc1cc(C)cc(Nc2nc(C)cc(=O)n2CC(=O)Nc2ccc(Br)cc2)c1")
"No"
>>> assigned_label("CCOC(=O)c1c(C)oc2ncnc(N3CCC(c4ccccc4)C3)c12 (stereo not drawn)")
"No"
>>> assigned_label("COC[C@@H]1CN(Cc2cc(C)nn2C)C[C@H]1c1ccccn1")
"Yes"
>>> assigned_label("CCNC(=O)N1CCc2c([nH]c3ccccc23)C12C(=O)N(C)c1ccccc12 (stereo not drawn)")
"Yes"
>>> assigned_label("CCCn1cc(CCNC(=O)C2CCCCC2)c2cccnc21")
"Yes"
>>> assigned_label("O=C(Cc1csc2nc(-c3cccc(Br)c3)cn12)NCc1ccc2c(c1)OCO2")
"No"
>>> assigned_label("CCOc1ccc(-n2nnnc2CN2CCN(S(=O)(=O)c3cccs3)CC2)cc1")
"No"
>>> assigned_label("Cc1ccc(NC(=O)C2CC(=O)N(c3ccc4oc(C)nc4c3)C2)c(F)c1 (stereo not drawn)")
"Yes"
>>> assigned_label("Cc1cc(F)ccc1S(=O)(=O)NCC(c1ccsc1)N1CCOCC1 (stereo not drawn)")
"Yes"
>>> assigned_label("CCOc1cccc(-c2noc(-c3nnn4c3COC(c3ccc(F)cc3)C4)n2)c1 (stereo not drawn)")
"No"
>>> assigned_label("COCc1cc(=O)n(CC(=O)Nc2cccc(C)c2C)c(N)n1")
"Yes"
>>> assigned_label("CCc1nnc(NC(=O)C2CCCN(c3ncnc4c3nc3n4CCCCC3)C2)s1 (stereo not drawn)")
"Yes"
>>> assigned_label("CCOC(=O)CN1CC2=C(C1=O)C(c1ccc(OC)cc1)NC(=O)N2 (stereo not drawn)")
"Yes"
>>> assigned_label("Cc1ccc(Nc2c(-c3cc(Br)ccc3O)nc3ncccn23)c(C)c1")
"No"
>>> assigned_label("CC(=O)Nc1ccc(SCC(=O)c2ccc(Cl)cc2)nn1")
"Yes"
